The reported numbers originate from ChEMBL document CHEMBL1126896.

As shown below, each of these compounds has a reported APTT value.
- Procedure summary: In vitro anticoagulant activity determined by clotting test of activated partial thromboplastin time (APTT) on a pool of human plasma
- Assay type: functional
Express it in IU mg-1; write the number only.

- Compound: "CCCC(=O)OC/C(=C\\C(=O)OCc1ccccc1)OC1OC(COS(=O)(=O)[O-])C(OC2OC(C(=O)OCc3ccccc3)C(OC3OC(COS(=O)(=O)[O-])C(OC4OC(C(=O)OCc5ccccc5)C(OC5OC(COS(=O)(=O)[O-])C(O)C(OC(=O)CCC)C5NS(=O)(=O)[O-])C(OC(=O)CCC)C4OS(=O)(=O)[O-])C(OC(=O)CCC)C3NS(=O)(=O)[O-])C(OC(=O)CCC)C2OS(=O)(=O)[O-])C(OC(=O)CCC)C1NS(=O)(=O)[O-].[Na+].[Na+].[Na+].[Na+].[Na+].[Na+].[Na+].[Na+] (configuration not stated)"
  APTT [IU mg-1]: 4

Kindly review the next compound as well.
q: Return reported APTT; argument: O=C([O-])/C=C(\CO)OC1OC(COS(=O)(=O)[O-])C(OC2OC(C(=O)[O-])C(OC3OC(COS(=O)(=O)[O-])C(OC4OC(C(=O)[O-])C(OC5OC(COS(=O)(=O)[O-])C(O)C(O)C5NS(=O)(=O)[O-])C(O)C4OS(=O)(=O)[O-])C(O)C3NS(=O)(=O)[O-])C(O)C2OS(=O)(=O)[O-])C(O)C1NS(=O)(=O)[O-].[Na+].[Na+].[Na+].[Na+].[Na+].[Na+].[Na+].[Na+].[Na+].[Na+].[Na+] (stereo in doubt; 2a)
a: 4

* * *

- Tested on: MT4
- Procedure summary: Effective concentration to achieve 50% protection of MT-4 cells against the cytopathic effect of HIV-2
- Format: functional, cell-based
- Conditions: Homo sapiens, MT4; read-out: EC50
Reported property: EC50

Before answering, review these 2 worked examples.
- Compound: "O=C([O-])/C=C(\\COC(=O)c1ccccc1)OC1OC(COS(=O)(=O)[O-])C(OC2OC(C(=O)[O-])C(OC3OC(COS(=O)(=O)[O-])C(OC4OC(C(=O)[O-])C(OC5OC(COS(=O)(=O)[O-])C(O)C(OC(=O)c6ccccc6)C5NS(=O)(=O)[O-])C(OC(=O)c5ccccc5)C4OS(=O)(=O)[O-])C(OC(=O)c4ccccc4)C3NS(=O)(=O)[O-])C(OC(=O)c3ccccc3)C2OS(=O)(=O)[O-])C(OC(=O)c2ccccc2)C1NS(=O)(=O)[O-].[Na+].[Na+].[Na+].[Na+].[Na+].[Na+].[Na+].[Na+].[Na+].[Na+].[Na+] (stereo not drawn)"
  Observed: "0.2 µg/mL"
- Compound: "CC(=O)OC/C(=C\\C(=O)[O-])OC1OC(COS(=O)(=O)[O-])C(OC2OC(C(=O)[O-])C(OC3OC(COS(=O)(=O)[O-])C(OC4OC(C(=O)[O-])C(OC5OC(CS(=O)(=O)[O-])C(O)C(OC(C)=O)C5NS(=O)(=O)[O-])C(OC(C)=O)C4OS(=O)(=O)[O-])C(OC(C)=O)C3NS(=O)(=O)[O-])C(OC(C)=O)C2OS(=O)(=O)[O-])C(OC(C)=O)C1NS(=O)(=O)[O-].[Na+].[Na+].[Na+].[Na+].[Na+].[Na+].[Na+].[Na+].[Na+].[Na+].[Na+] (stereo not drawn)"
  Observed: "0.59 µg/mL"

API: the following record is the query input.
q: Please give the measured EC50 for this compound: COC1C(NC(C)=O)C(OC2C(C(=O)[O-])OC(OC3C(NC(C)=O)C(OC4C(C(=O)[O-])OC(C)C(OC(C)=O)C4O)OC(COC(C)=O)C3OS(=O)(=O)[O-])C(OC(C)=O)C2OC(C)=O)OC(COC(C)=O)C1OS(=O)(=O)[O-].[Na+].[Na+].[Na+].[Na+] (stereo not drawn)
a: 88 µg/mL
